Assay: MTT test compound cytotoxicity in human foreskin fibroblasts
Format: cell-based
Details: hff cells, 0.00032 μM, read-out: MTT assay (Percent of control)
property_name: viability at 0.00032 µM (%)
Write the value in % as a bare number.

query: # viability at 0.00032 µM lookup, item `O=c1[nH]c(=O)n([C@@H]2O[C@H](CO)[C@H]2CO)cc1C=CBr`
result: 98

---

Assay: MTT test compound cytotoxicity in human foreskin fibroblasts
Assay type: cell-based
Settings: hff cells, 1.0 μM, read-out: MTT assay (Percent of control)
property_name: viability at 1 µM (%)
Numbers only; they are read as %.

query: Can you share its viability at 1 µM? I mean this compound: O=c1[nH]c(=O)n([C@@H]2O[C@H](CO)[C@H]2CO)cc1C=CBr [Example 44]
result: 100

query: What do you get for O=c1[nH]c(=O)n([C@@H]2O[C@H](CO)[C@H]2CO)cc1I [Example 42] ?
result: 93

query: Param item: O=c1[nH]c(=O)n([C@@H]2O[C@H](CO)[C@H]2CO)cc1C=CI [Example 49]
result: 100

query: And Nc1ccn([C@@H]2O[C@H](CO)[C@H]2CO)c(=O)n1 [Example 22] ?
result: 77

query: Then CC#Cc1cn([C@@H]2O[C@H](CO)[C@H]2CO)c(=O)[nH]c1=O [Example 68] ?
result: 98

query: Again, but for O=c1[nH]c(=O)n([C@@H]2O[C@H](CO)[C@H]2CO)cc1Br [Example 43]
result: 100

query: Moving on to Cc1cn([C@@H]2O[C@H](CO)[C@H]2CO)c(=O)[nH]c1=O [Example 21]
result: 87

query: Entry to check: O=c1[nH]c(=O)n([C@@H]2O[C@H](CO)[C@H]2CO)cc1C=CCl [Example 50]
result: 100

---

Assay: MTT drug cytotoxicity assay in MRC5 cells
Type: cell-based
Conditions: human, 3.2 μg/ml, read-out: MTT assay Percent of control
property_name: viability (%)
Please reply with the bare figure in % and do not write the unit itself.

query: State the recorded viability for this entry: Nc1ccn([C@@H]2O[C@H](CO)[C@H]2CO)c(=O)n1 [Example 22]
result: 77

---

Assay: MTT test compound cytotoxicity in human foreskin fibroblasts
Type: cell-based
Conditions: hff cells, 0.32 μM, read-out: MTT assay (Percent of control)
Record form. Attribute: viability at 0.32 µM. Fill in for each entry.
Respond numerically; units are % and should not be typed.

query: // query viability at 0.32 µM value for entry `Cc1cn([C@@H]2O[C@H](CO)[C@H]2CO)c(=O)[nH]c1=O`
result: 84

query: What do you get for `O=c1[nH]c(=O)n([C@@H]2O[C@H](CO)[C@H]2CO)cc1C=CBr` ?
result: 92

query: Next entry: `Nc1ccn([C@@H]2O[C@H](CO)[C@H]2CO)c(=O)n1`
result: 81

query: Also `O=c1[nH]c(=O)n([C@@H]2O[C@H](CO)[C@H]2CO)cc1C=CI` ?
result: 100

query: Can you handle `O=c1[nH]c(=O)n([C@@H]2O[C@H](CO)[C@H]2CO)cc1Br` next?
result: 96

query: Let us now turn to `CC#Cc1cn([C@@H]2O[C@H](CO)[C@H]2CO)c(=O)[nH]c1=O`
result: 100

query: And `O=c1[nH]c(=O)n([C@@H]2O[C@H](CO)[C@H]2CO)cc1C=CCl` ?
result: 100

---

Assay: MTT drug cytotoxicity assay in MRC5 cells
Assay type: cell-based
Details: human, 10 μg/ml, read-out: MTT assay Percent of control
For each entry below, report its viability value.
Please make sure the unit comes right after the number.

query: # viability lookup, item `O=c1ccn([C@@H]2O[C@H](CO)[C@H]2CO)c(=O)[nH]1`
result: 100%

query: Moving on to the next molecule: `Nc1ccn([C@@H]2O[C@H](CO)[C@H]2CO)c(=O)n1`
result: 78%

---

Assignment: determine reported inhibition at 0.032 µM for the given molecules.
Tested on: Varicella-Zoster Virus (VZV) clinical isolate DM625
Test: VZV plaque reduction assay
Type: cell-based
Conditions: Human alphaherpesvirus 3, 144 h; VZV in HFF; 0.032 μM
Kindly answer with a numeric value in %, unit omitted.

query: Give the measured inhibition at 0.032 µM of O=c1[nH]c(=O)n([C@@H]2O[C@H](CO)[C@H]2CO)cc1I [Example 42] .
result: 7

query: Same question for O=c1[nH]c(=O)n([C@@H]2O[C@H](CO)[C@H]2CO)cc1Br [Example 43] please.
result: 1

query: Try the molecule O=c1[nH]c(=O)n([C@@H]2O[C@H](CO)[C@H]2CO)cc1C=CI [Example 49]
result: 97

query: What about this molecule? Nc1ccn([C@@H]2O[C@H](CO)[C@H]2CO)c(=O)n1 [Example 22]
result: 29

query: Then this molecule: O=c1[nH]c(=O)n([C@@H]2O[C@H](CO)[C@H]2CO)cc1C=CCl [Example 50]
result: 90

query: // next record CC#Cc1cn([C@@H]2O[C@H](CO)[C@H]2CO)c(=O)[nH]c1=O [Example 68]
result: 3

query: Next: Cc1cn([C@@H]2O[C@H](CO)[C@H]2CO)c(=O)[nH]c1=O [Example 21]
result: 16

query: Next: O=c1[nH]c(=O)n([C@@H]2O[C@H](CO)[C@H]2CO)cc1C=CBr [Example 44]
result: 97

---

Assay: MTT drug cytotoxicity assay in MRC5 cells
Assay type: cell-based
Details: human, 100 μg/ml, read-out: MTT assay Percent of control
Protocol: Human diploid embryonic lung (MRC5) cells were grown in 35 mm wells of 6-well tissue culture plates. […] Drug cytotoxicity was determined quantitatively by a method based on the reduction of the tetrazolium salt, 3-(4,5-dimethyl-thiazol-2-yl)-2,5-diphenyl tetrazolium bromide (MTT) by mitochondrial enzymes of viable host cells to MTT formazan (T. Mosmann, 1983). […] The blue color of the MTT formazan was measured spectrophotometrically at 570 nm. […]
property_name: viability (%)
Answer format: numeric, % implied, no suffix.

query: Which viability reading was recorded for the compound `O=c1ccn([C@@H]2O[C@H](CO)[C@H]2CO)c(=O)[nH]1` ?
result: 98

---

Assay: MTT test compound cytotoxicity in human foreskin fibroblasts
Format: cell-based
Conditions: hff cells, 0.01 μM, read-out: MTT assay (Percent of control)
property_name: viability at 0.01 µM (%)
The reply should contain only the number, in %.

query: GET /values?readout=viability at 0.01 µM&item= `O=c1[nH]c(=O)n([C@@H]2O[C@H](CO)[C@H]2CO)cc1C=CBr`
result: 97

---

Assay: MTT test compound cytotoxicity in human foreskin fibroblasts
Format: cell-based
Conditions: hff cells, 100 μM, read-out: MTT assay (Percent of control)
property_name: viability at 100 µM (%)
Give the quantity in %, number only.

query: Look at this compound and give its reported viability at 100 µM. `O=c1[nH]c(=O)n([C@@H]2O[C@H](CO)[C@H]2CO)cc1I`
result: 82

query: Input `O=c1[nH]c(=O)n([C@@H]2O[C@H](CO)[C@H]2CO)cc1Br`
result: 100

query: Lookup `O=c1ccn([C@@H]2O[C@H](CO)[C@H]2CO)c(=O)[nH]1`
result: 88

---

Test: MTT test compound cytotoxicity in human foreskin fibroblasts
Format: cell-based
Settings: hff cells, 3.2 μM, read-out: MTT assay (Percent of control)
Consider the following compounds; for each one, report its viability at 3.2 µM.
Include the unit after the number when you answer.

query: Any idea what viability at 3.2 µM was measured for `CC#Cc1cn([C@@H]2O[C@H](CO)[C@H]2CO)c(=O)[nH]c1=O` ?
result: 100%

query: Next entry: `Cc1cn([C@@H]2O[C@H](CO)[C@H]2CO)c(=O)[nH]c1=O`
result: 87%

query: Proceed to `Nc1ccn([C@@H]2O[C@H](CO)[C@H]2CO)c(=O)n1`
result: 76%

query: Next compound: `O=c1ccn([C@@H]2O[C@H](CO)[C@H]2CO)c(=O)[nH]1`
result: 82%

query: Also `O=c1[nH]c(=O)n([C@@H]2O[C@H](CO)[C@H]2CO)cc1C=CBr` , if possible.
result: 100%

query: Now the compound `O=c1[nH]c(=O)n([C@@H]2O[C@H](CO)[C@H]2CO)cc1Br`
result: 93%

query: Please give the result for `O=c1[nH]c(=O)n([C@@H]2O[C@H](CO)[C@H]2CO)cc1I` too.
result: 94%

---

Experiment: MTT drug cytotoxicity assay in MRC5 cells
Assay type: cell-based
Details: human, 320 μg/ml, read-out: MTT assay Percent of control
property_name: viability (%)
Respond numerically; units are % and should not be typed.

query: May I ask what viability has been recorded for O=c1ccn([C@@H]2O[C@H](CO)[C@H]2CO)c(=O)[nH]1 [Example 23] ?
result: 100

meta.source: patent US5420276A
